molecular target: nectin-1 C-terminal 10mer peptide, N-terminally biotinylated; experiment: BLI
observable: Kd
Answer format: value, then unit.

Form field: reported Kd of human afadin PDZ domain (domain or fragment) IITVTLKKQNGMGLSIVAAKGAGQDKLGIYVKSVVKGGAADVDGRLAAGDQLLSVDGRSLVGLSQERAAELMTRTSSVVTLEVAKQG
3 µM
